Please provide measured FOB Fold Over Background for the entries that follow.
# assayed system: T1, human TREM2 on BWZ cells (human, UniProt Q9NZC2 19-230)
# T1 construct: whole, on cells; not tied to the cell line; also called BWZ Human TREM2
# T1 sequence (looked up): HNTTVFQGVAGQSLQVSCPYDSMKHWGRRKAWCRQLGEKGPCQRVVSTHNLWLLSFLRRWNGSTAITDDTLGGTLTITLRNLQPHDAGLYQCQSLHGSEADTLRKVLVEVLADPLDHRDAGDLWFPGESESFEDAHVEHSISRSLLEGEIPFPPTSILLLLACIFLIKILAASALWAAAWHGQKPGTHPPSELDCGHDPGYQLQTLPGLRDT
# assay method text: FACS, BWZ human TREM2
Answers are plain numbers, in fold.

Below, each entry is followed by its recorded FOB Fold Over Background result.
binder="T1-31 (antibody, IgG1, V domains shown, huIgG1; also called TI-31) VH: QLQLQESGPGLVKPSETLSLTCTVSGGSISSSSYYWGWIRQPPGKGLEWIGSIYYSGSTYYNPSLKSRVTISVDTSKNQFSLKLSSVTAADTAVYYCARDRRMWDPYGMDVWGQGTTVTVSS VL: DIQMTQSPSSLSASVGDRVTITCQASQDISNYLNWYQQKPGKAPKLLIYDASNLETGVPSRFSGSGSGTDFTFTISSLQPEDIATYYCQQYDDFPPITFGGGTKVEIK" measured=0.5
binder="T1-29 (antibody, IgG1, V domains shown, huIgG1; also called TI-29) VH: QLQLQESGPGLVKPSETLSLTCTVSGGSISSSSYYWGWIRQPPGKGLEWIGSIYYSGSTYYNPSLKSRVTISVDTSKNQFSLKLSSVTAADTAVYYCARDGGGTAQADGAYYYGMDVWGQGTTVTVSS VL: EIVLTQSPATLSLSPGERATLSCRASQSVSSYLAWYQQKPGQAPRLLIYDASNRATGIPARFSGSGSGTDFTLTISSLEPEDFAVYYCQQGVNYPFTFGGGTKVEIK" measured=0.7
binder="T1-21 (antibody, IgG1, V domains shown, huIgG1; also called TI-21; ADI-19088) VH: EVQLVESGGGLVQPGGSLRLSCAASGFTFSSYSMNWVRQAPGKGLEWVSYISSSSSTIYYADSVKGRFTISRDNAKNSLYLQMNSLRAEDTAVYYCARGGPLGYGDYKGMDVWGQGTTVTVSS VL: DIQLTQSPSSLSASVGDRVTITCRASQSISSFLNWYQQKPGKAPKLLIYAASSLQSGVPSRFSGSGSGTDFTLTISSLQPEDFATYYCQQSYSDLTFGGGTKVEIK" measured=0.5

Find the recorded FOB Fold Over Background belonging to T1-13 (antibody, IgG1, V domains shown, huIgG1; also called TI-13; ADI-19080) VH: EVQLVESGGGLVKPGGSLRLSCAASGFTFSSYSMNWVRQAPGKGLEWVSSISSSSNYIYYADSVKGRFTISRDNAKNSLYLQMNSLRAEDTAVYYCARGRYRRTGSLDVWGQGTMVTVSS VL: EIVLTQSPGTLSLSPGERATLSCRASQSVSSSFLAWYQQKPGQAPRLLIYGASSRATGIPDRFSGSGSGTDFTLTISRLEPEDFAVYYCQQLDSHPPTFGGGTKVEIK and report it.
0.7
